target: IDH2 R140Q (Homo sapiens, UniProt P48735, R140Q); assay: IDH2 R140Q enzymatic assay (cofactor depletion, similar format); type: biochemical; conditions: read-out: Enz R140Q
Sequence (P48735 40-452 R140Q): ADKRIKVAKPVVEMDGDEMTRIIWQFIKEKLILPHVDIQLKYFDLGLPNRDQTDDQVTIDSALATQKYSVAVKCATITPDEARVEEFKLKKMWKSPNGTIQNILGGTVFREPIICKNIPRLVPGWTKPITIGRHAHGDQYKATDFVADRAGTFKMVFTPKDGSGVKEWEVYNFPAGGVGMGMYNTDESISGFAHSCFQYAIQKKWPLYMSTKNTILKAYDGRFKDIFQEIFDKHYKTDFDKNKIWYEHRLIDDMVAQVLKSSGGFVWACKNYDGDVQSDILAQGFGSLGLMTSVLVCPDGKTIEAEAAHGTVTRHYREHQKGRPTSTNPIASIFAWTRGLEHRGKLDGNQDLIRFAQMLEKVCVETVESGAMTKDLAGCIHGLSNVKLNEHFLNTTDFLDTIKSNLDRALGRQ
pIC50: −log10 of the molar value.
Each entry below carries its reported pIC50.

>  <compound>
CC(C)Nc1nc(Nc2ccnc(Cl)c2)nc(-c2cccc(C(F)(F)F)n2)n1 [Compound 572]

>  <pIC50>
6.00 to 7.00

$$$$
>  <compound>
CC(C)Nc1nc(Nc2cncc(F)c2)nc(-c2ccccc2)n1 [Compound 193]

>  <pIC50>
> 7.00

$$$$
>  <compound>
Fc1cncc(Nc2nc(NC3COC3)nc(-c3ccccc3F)n2)c1 [Compound 625]

>  <pIC50>
> 7.00

$$$$
>  <compound>
CC(C)(C)Nc1nc(Nc2ccnc(C3(C#N)CC3)c2)nc(-c2cccc(C(C)(F)F)n2)n1 [Compound 606]

>  <pIC50>
6.00 to 7.00

$$$$
>  <compound>
CC(C)Nc1nc(Nc2ccncc2)nc(-c2ccccc2)n1 [Compound 129]

>  <pIC50>
> 7.00

$$$$
>  <compound>
CC(C)C(CO)Nc1nc(Nc2ccncc2)nc(-c2ccccc2)n1 (stereo not drawn) [Compound 279]

>  <pIC50>
< 5.00

$$$$
>  <compound>
CC(C)Nc1nc(Nc2ccccc2)nc(-c2ccn[nH]2)n1 [Compound 148]

>  <pIC50>
6.00 to 7.00

$$$$
>  <compound>
CC1(Nc2nc(Nc3ccnc(C(F)(F)F)c3)nc(-c3cccc(N)n3)n2)CC1 [Compound 692]

>  <pIC50>
6.00 to 7.00

$$$$
>  <compound>
COC(=O)N1CCC(Nc2nc(Nc3ccnc(C(F)(F)F)c3)nc(-c3cccc(C(F)(F)F)n3)n2)CC1 [Compound 577]

>  <pIC50>
5.00 to 6.00

$$$$
>  <compound>
CC(C)Nc1nc(Nc2ccnc(C3(C)CC3)c2)nc(-c2cccc(C(F)(F)F)n2)n1 [Compound 581]

>  <pIC50>
6.00 to 7.00

$$$$
>  <compound>
CC(C)Nc1nc(Nc2ccccc2)nc(-c2cc(C(F)(F)F)ccn2)n1 [Compound 270]

>  <pIC50>
> 7.00

$$$$
>  <compound>
CC(C)Nc1nc(Nc2ccnc(C#N)c2)nc(-c2ccccc2F)n1 [Compound 369]

>  <pIC50>
> 7.00

$$$$
>  <compound>
CC(C)(C)Nc1nc(Nc2cc(Cl)cc(S(C)(=O)=O)c2)nc(-c2cccc(C(F)(F)F)n2)n1 [Compound 600]

>  <pIC50>
6.00 to 7.00

$$$$
>  <compound>
c1ccc(-c2nc(Nc3ccncc3)nc(NC3CC3)n2)cc1 [Compound 217]

>  <pIC50>
> 7.00

$$$$
>  <compound>
CC(C)Nc1nc(Nc2ccc(Cl)cc2)nc(-c2ccccc2)n1 [Compound 143]

>  <pIC50>
> 7.00

$$$$
>  <compound>
O[C@H]1CCC[C@H]1Nc1nc(Nc2ccccc2)nc(-c2ccccc2)n1 [Compound 352]

>  <pIC50>
> 7.00

$$$$
>  <compound>
OC1CCCC(Nc2nc(Nc3ccncc3)nc(-c3ccccc3)n2)C1 (stereo not drawn) [Compound 304]

>  <pIC50>
5.00 to 6.00

$$$$
>  <compound>
COCCCNc1nc(Nc2ccncc2)nc(-c2ccccc2)n1 [Compound 275]

>  <pIC50>
6.00 to 7.00

$$$$
